EXPERIMENTAL_TARGET: S. aureus TrmD (Staphylococcus aureus, UniProt Q2FZ43)
Construct: made in house; host or cells: E. coli BL21
Sequence (Q2FZ43 whole entry): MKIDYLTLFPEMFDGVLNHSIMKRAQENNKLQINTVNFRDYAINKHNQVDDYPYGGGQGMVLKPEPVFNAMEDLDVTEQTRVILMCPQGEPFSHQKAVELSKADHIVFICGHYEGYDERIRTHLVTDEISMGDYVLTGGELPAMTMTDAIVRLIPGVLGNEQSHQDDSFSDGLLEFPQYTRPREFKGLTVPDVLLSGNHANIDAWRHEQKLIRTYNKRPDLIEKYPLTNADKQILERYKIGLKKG
PROTOCOL_NOTES: nanoSAR direct-to-biology FP displacement screening of crude triazoles
Assay type: binding
TEST_SETTINGS: crude triazole at 1 μM, assuming full conversion; 500 nM TrmD, 10 nM tracer 4; read-out: % displaced tracer
Record form. Attribute: inhibition at 1 µM. Fill in for each entry.
Quick reminder: number only, in %, skip the unit.

inhibition at 1 µM measured on O=C1CC[C@@H](N2Cc3cc(-n4cc(-c5c[nH]c6nc[nH]c(=O)c56)nn4)ccc3C2=O)C(=O)N1 = 23

inhibition at 1 µM measured on O=c1[nH]cnc2[nH]cc(-c3cn(Cc4ccno4)nn3)c12 = 92

inhibition at 1 µM measured on O=c1[nH]cnc2[nH]cc(-c3cn(Cc4ncon4)nn3)c12 = 31

inhibition at 1 µM measured on CC[C@@H](c1ccccc1F)n1cc(-c2c[nH]c3nc[nH]c(=O)c23)nn1 = 24

====

EXPERIMENTAL_TARGET: S. aureus TrmD (Staphylococcus aureus, UniProt Q2FZ43)
Construct: made in house; host or cells: E. coli BL21
PROTOCOL_NOTES: nanoSAR direct-to-biology FP displacement screening of crude triazoles
Format: binding
TEST_SETTINGS: crude triazole at 1 μM, assuming full conversion; 500 nM TrmD, 10 nM tracer 4; read-out: % displaced tracer
Everything with inhibition at 1 µM lower than 20% is condition not met; everything else, including exactly 20%, is condition met.

State whether the measured inhibition at 1 µM reaches 20%, counting equality as reaching it, for O=c1[nH]cnc2[nH]cc(-c3cn(-c4ccc5nccnc5c4)nn3)c12
condition not met

State whether the measured inhibition at 1 µM reaches 20%, counting equality as reaching it, for COC(=O)CCCn1cc(-c2c[nH]c3nc[nH]c(=O)c23)nn1
condition met

State whether the measured inhibition at 1 µM reaches 20%, counting equality as reaching it, for Cc1nc2ccc(-n3cc(-c4c[nH]c5nc[nH]c(=O)c45)nn3)cc2s1
condition not met

State whether the measured inhibition at 1 µM reaches 20%, counting equality as reaching it, for NC1(c2noc(Cn3cc(-c4c[nH]c5nc[nH]c(=O)c45)nn3)n2)CCCCCC1
condition met

State whether the measured inhibition at 1 µM reaches 20%, counting equality as reaching it, for O=c1[nH]cnc2[nH]cc(-c3cn(CCO)nn3)c12
condition met

State whether the measured inhibition at 1 µM reaches 20%, counting equality as reaching it, for O=c1[nH]cnc2[nH]cc(-c3cn(C[C@@H]4COCCO4)nn3)c12
condition met

====

EXPERIMENTAL_TARGET: S. aureus TrmD (Staphylococcus aureus)
Construct: made in house; host or cells: E. coli BL21
PROTOCOL_NOTES: nanoSAR direct-to-biology FP displacement screening of crude triazoles
Format: binding
TEST_SETTINGS: crude triazole at 1 μM, assuming full conversion; 500 nM TrmD, 10 nM tracer 4; read-out: % displaced tracer
Everything with inhibition at 1 µM lower than 60% is 0.0; everything else, including exactly 60%, is 1.0.

State whether the measured inhibition at 1 µM reaches 60%, counting equality as reaching it, for C[C@@H](Cn1cc(-c2c[nH]c3nc[nH]c(=O)c23)nn1)c1ccccn1
1.0

State whether the measured inhibition at 1 µM reaches 60%, counting equality as reaching it, for CC(C)CCn1cc(-c2c[nH]c3nc[nH]c(=O)c23)nn1
0.0

State whether the measured inhibition at 1 µM reaches 60%, counting equality as reaching it, for O=c1[nH]cnc2[nH]cc(-c3cn(CC4CCC5C(CC4)C5(F)F)nn3)c12 (centres unmarked)
1.0

State whether the measured inhibition at 1 µM reaches 60%, counting equality as reaching it, for O=c1[nH]cnc2[nH]cc(-c3cn(C[C@@H]4CCCN4)nn3)c12
0.0

State whether the measured inhibition at 1 µM reaches 60%, counting equality as reaching it, for COc1ccccc1[C@H](O)Cn1cc(-c2c[nH]c3nc[nH]c(=O)c23)nn1
0.0
